MEASUREMENT_TARGET: Thromboxane A2 receptor (Homo sapiens) (UniProt P21731)
Sequence (P21731 whole entry): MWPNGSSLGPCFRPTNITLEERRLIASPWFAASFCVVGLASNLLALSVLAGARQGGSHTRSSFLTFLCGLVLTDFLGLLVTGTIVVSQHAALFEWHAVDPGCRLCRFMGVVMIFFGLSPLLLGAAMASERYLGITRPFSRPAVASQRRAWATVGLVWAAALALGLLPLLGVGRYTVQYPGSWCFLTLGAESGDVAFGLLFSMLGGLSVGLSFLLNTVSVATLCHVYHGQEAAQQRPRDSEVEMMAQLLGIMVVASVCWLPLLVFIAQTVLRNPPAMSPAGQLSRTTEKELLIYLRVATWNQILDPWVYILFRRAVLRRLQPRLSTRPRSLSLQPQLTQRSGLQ
METHOD_NOTES: Competition factor for Thromboxane A2 (TXA2) / Prostaglandin H2 (PGH2)-receptor was determined by CF=(ID50-test)/(ID50-standard)
Label YES for high-side CF (at or above 4) and NO for low-side CF (below it).

[in] Hello, I need to know if CCCCC[C@H](O)/C=C/[C@@H]1C2CC(c3ccc(F)cc3)(CO2)[C@H]1C/C=C/CCCC(=O)O (stereo not given in full) has measured CF not below 4. Thanks!
[out] YES

[in] Could you please find out whether Cc1ccc(S(=O)(=O)NC[C@@H]2C3CC(c4ccc(-c5ccccc5)cc4)(CO3)[C@H]2C/C=C\CCC(=O)O)cc1 (stereo not given in full) has CF that meets 4 or exceeds it?
[out] NO

[in] Dear colleague, could you confirm whether Cc1ccc(S(=O)(=O)NC[C@@H]2C3CC(c4ccc(-c5ccccc5)cc4)(CO3)[C@H]2CCCCCC(=O)O)cc1 (stereo not given in full) has CF at or above 4?
[out] NO

[in] CF >= 4 for O=C(O)CCC/C=C/C[C@H]1[C@H](/C=N/Oc2ccc(F)cc2)C2CC1(c1cccc(F)c1)CO2 (stereo not given in full) ?
[out] YES

====

MEASUREMENT_TARGET: Thromboxane A2 receptor (Homo sapiens)
METHOD_NOTES: Competition factor for Thromboxane A2 (TXA2) / Prostaglandin H2 (PGH2)-receptor was determined by CF=(ID50-test)/(ID50-standard)
// returns N unless CF is strictly below 200, in which case Y

COMPOUND | MEASUREMENT_TARGET | ANSWER_LABEL
O=C(O)CCC/C=C/C[C@H]1[C@H](/C=N/Oc2ccc(F)cc2)C2CC1(c1ccc(F)cc1)CO2 (some centres not stated) | Thromboxane A2 receptor (Homo sapiens) | Y

[in] Take the compound CCC#CC[C@H](C)[C@H](O)/C=C/[C@@H]1C2CC(c3ccc(F)cc3)(CO2)[C@H]1C/C=C/CCCC(=O)O (some centres not stated) and say whether its CF is less than 200.
[out] Y

[in] CF under 200? Item: CCCCC[C@H](O)/C=C/[C@H]1C2CC(c3ccc(F)cc3)(CO2)[C@@H]1C/C=C/CCCC(=O)O (some centres not stated)
[out] N

[in] Quick check: CF of O=C(O)CCC/C=C/C[C@@H]1[C@@H](COCc2ccccc2)C2CC1(Cc1ccccc1)CO2 (some centres not stated) under 200?
[out] N

[in] A record lists Cc1ccc(S(=O)(=O)N[C@@H]2C3CC(c4ccc(F)cc4)(CO3)[C@H]2C/C=C/CCCC(=O)O)cc1 (some centres not stated) . Is its CF below 200?
[out] Y

[in] In plain terms, does O=C(O)CCC/C=C/C[C@H]1C2COC(C2)[C@@H]1COCc1ccccc1 (some centres not stated) come in under 200 for CF?
[out] N

[in] # strict comparison: is reported CF < 200? input = CC12COC(C1)[C@H](COCc1ccccc1)[C@H]2C/C=C/CCCC(=O)O (some centres not stated)
[out] N

[in] API: query returns whether the compound falls strictly under 200 in CF. Query: O=C(O)CCC/C=C/C[C@H]1[C@H](NS(=O)(=O)c2ccc(F)cc2)C2CC1(c1cccc(F)c1)CO2 (some centres not stated)
[out] N

[in] Record Cc1ccc(S(=O)(=O)N[C@@H]2C3CC(c4ccc(-c5ccccc5)cc4)(CO3)[C@H]2C/C=C/CCCC(=O)O)cc1 (some centres not stated) : is its CF strictly below 200?
[out] Y
